Target under test: Cytochrome P450 2C19 (Homo sapiens) (UniProt P33261)
Sequence (P33261 whole entry, looked up): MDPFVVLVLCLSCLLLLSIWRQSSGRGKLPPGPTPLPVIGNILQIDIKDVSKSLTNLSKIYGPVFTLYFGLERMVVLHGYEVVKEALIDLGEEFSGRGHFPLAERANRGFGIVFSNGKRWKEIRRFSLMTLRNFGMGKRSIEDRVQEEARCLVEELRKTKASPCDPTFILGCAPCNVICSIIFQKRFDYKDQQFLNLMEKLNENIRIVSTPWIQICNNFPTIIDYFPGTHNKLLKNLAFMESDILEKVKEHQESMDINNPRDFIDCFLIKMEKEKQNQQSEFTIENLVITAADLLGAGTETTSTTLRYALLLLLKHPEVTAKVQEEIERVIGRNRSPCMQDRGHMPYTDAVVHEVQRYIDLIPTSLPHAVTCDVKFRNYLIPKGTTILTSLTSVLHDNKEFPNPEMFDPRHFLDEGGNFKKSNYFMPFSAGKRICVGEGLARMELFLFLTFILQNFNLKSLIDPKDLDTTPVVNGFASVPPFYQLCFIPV
Assay info: Cytochrome panel assay with activity outcomes
Condition label: recombinant CYP, pro-luciferin dealkylation, luminescence, p450-cyp2c19; series mostly up to 57.1 µM
Hit rate of the full screen: of about 16,000 compounds, about 5,800 (36%) were called active. Roughly 23% stayed inconclusive and do not appear here. The call rests on the fitted dose curve; in most records, active means well fitted curve in the direction sought with a large enough effect; inconclusive means small, poorly fitted or top-dose-only effect, or effect the other way; inactive means no such curve, though single readings can be large or run the other way. Some of the results follow.
Outcome field: choose from 1.0 = active, 0.0 = inactive

[
  {
    "Molecule": "CCC(=O)O[C@@]1(C(=O)CCl)[C@@H](C)C[C@@H]2[C@H]3CCC4=CC(=O)C=C[C@@]4(C)[C@]3(F)[C@@H](O)C[C@@]21C",
    "Assigned category": 0.0
  },
  {
    "Molecule": "COc1ccc2c(Cc3c4ccccc4cc4ccccc34)cncc2c1O",
    "Assigned category": 1.0
  },
  {
    "Molecule": "CC(Oc1ccc(Cl)cc1Cl)C(=O)/C=C/N(C)C (stereo not given)",
    "Assigned category": 1.0
  },
  {
    "Molecule": "CSc1nc(N)nc(SCC(=O)Nc2ccc(Cl)cc2)c1C#N",
    "Assigned category": 1.0
  },
  {
    "Molecule": "CC(Oc1ccc(Cl)cc1)C(=O)/C=C/N(C)C (stereo not given)",
    "Assigned category": 1.0
  },
  {
    "Molecule": "C=CC1=C(C)C2=Cc3c(C=C)c(C)c4[n]3[Sn+2][n]3c(c(C)c(CCC(=O)O)c3=CC3=NC(=C4)C(C)=C3CCC(=O)O)=CC1=N2",
    "Assigned category": 0.0
  }
]

Prompt: What call does the record list for "COc1ccc(NC(=O)CSc2nc(C)c3c(c2C#N)CCCC3)cc1" ?
Completion: 1.0

Prompt: What call does the record list for "O=C(O)/C=C\[C@H](O)c1ccc(Cl)cc1" ?
Completion: 0.0

Prompt: What call does the record list for "C[C@H](N=C(NC#N)Nc1ccncc1)C(C)(C)C" ?
Completion: 0.0

Prompt: What call does the record list for "CCOc1ccc(NC(=O)CSc2nc(C)c3c(c2C#N)CCCC3)cc1" ?
Completion: 1.0
